- System: COLO 205 colon
- testSummary: NCI-60 one-dose screen, 48 h (100 = growth as untreated, 0 = no growth, -100 = all killed)
- conditions: 10 µM unless noted
The panel holds about 83,000 compounds, 20% with a hit somewhere; the sample as a whole holds those more often.
Measured growth by item
metric: growth (%)

{"compound": "C=C(C)[C@@H]1CC[C@]2(COC3CCCCO3)CC[C@]3(C)[C@H](CC[C@@H]4[C@@]5(C)C=C(C=O)C(=O)C(C)(C)[C@@H]5CC[C@]43C)[C@@H]12 (some centres undefined)", "numericResult": -32}
{"compound": "O=c1oc2c(cc1-c1ccccc1)c[n+]([O-])c1ccccc21", "numericResult": 102}
{"compound": "C=C(c1ccc(C(=O)O)c(F)c1)c1cc2c(cc1C)C(C)(C)CCC2(C)C", "numericResult": 123}
{"compound": "COc1ccc(C(c2cc(OC)c(OC)c(OC)c2)N2CCCCC2)cc1 (centres undefined)", "numericResult": 16.1}
{"compound": "Cc1nc2sc(C(=O)Nc3cccc4ccccc34)c(N)c2cc1C(=O)c1ccccc1", "numericResult": -2.82}
{"compound": "CS(=O)/C(C#N)=C\\C=C\\c1cccc(Cl)c1 (centres undefined)", "numericResult": -22}
{"compound": "Clc1ccc(-c2nc(C(Cl)Cl)nc3cc(-c4ccccc4)nn23)cc1", "numericResult": -8.35}
{"compound": "COc1ccc(C=Nc2c(C(=O)Nc3cccc(Cl)c3C)sc3nc(C)c(C(=O)/C=C/c4ccc(OC)cc4)cc23)cc1", "numericResult": 11.2}
{"compound": "OC1CSSC1Cn1cnc2c(Nc3ccc(OCc4cccc(F)c4)c(Cl)c3)ncnc21 (centres undefined)", "numericResult": -58.3}

---

- Test system: HOP-92 NSCLC
- testSummary: NCI-60 one-dose screen, 48 h (100 = growth as untreated, 0 = no growth, -100 = all killed)
- conditions: 10 µM unless noted
About 83,000 compounds went through this panel and 20% of them were active in at least one assay; those are over-represented in the sample as a whole.
Use growth to assign classes; range list: bin A = under 40%, bin B = from 40% up to 80%, bin C = 80% and over

{"compound": "CS(=O)/C(C#N)=C\\C=C\\c1cccc(Cl)c1 (centres undefined)", "studyTarget": "HOP-92 NSCLC", "cat": "bin A"}
{"compound": "Clc1ccc(Nc2nnc(CNc3ccccc3)c3ccccc23)cc1", "studyTarget": "HOP-92 NSCLC", "cat": "bin A"}
{"compound": "O=C(NNc1nc2cc(F)ccc2n2c(CN3CCOCC3)ccc12)c1ccccc1", "studyTarget": "HOP-92 NSCLC", "cat": "bin A"}
{"compound": "CCN(CCNc1ccc(C)c2sc3cc(Cl)ccc3c(=O)c12)CC(C)(C)O", "studyTarget": "HOP-92 NSCLC", "cat": "bin B"}
{"compound": "O=c1c2ccccc2n(C[C@H]2CO2)c2ccccc12", "studyTarget": "HOP-92 NSCLC", "cat": "bin A"}
{"compound": "CCN(CC)CCN1C(=O)c2c(c3c4ccccc4[nH]c3c3ccc4ccccc4c23)C1=O", "studyTarget": "HOP-92 NSCLC", "cat": "bin B"}
{"compound": "CCCc1cc(=O)oc2c(C(=O)CC(C)C)c(O)c(CC=C(C)C)c(O)c12", "studyTarget": "HOP-92 NSCLC", "cat": "bin A"}
{"compound": "CN1CC(c2ccc(Br)cc2)C(C(=O)c2ccc(Br)cc2)C12C(=O)Nc1ccccc12 (centres undefined)", "studyTarget": "HOP-92 NSCLC", "cat": "bin B"}
{"compound": "COc1ccc(C(O)c2cc3c(N)c(C(=O)Nc4cccc5ccccc45)sc3nc2C)cc1 (centres undefined)", "studyTarget": "HOP-92 NSCLC", "cat": "bin B"}
{"compound": "Cc1c(O)cc(-c2cnc(N/N=C/c3ccccc3)s2)c(O)c1C", "studyTarget": "HOP-92 NSCLC", "cat": "bin C"}
{"compound": "O=C1CCC(C(=O)N/N=C/c2cc(F)ccc2F)N1 (centres undefined)", "studyTarget": "HOP-92 NSCLC", "cat": "bin C"}
{"compound": "COc1ccc(C(c2cc(OC)c(OC)c(OC)c2)N2CCCCC2)cc1 (centres undefined)", "studyTarget": "HOP-92 NSCLC", "cat": "bin B"}
{"compound": "COC(=O)Cn1c2c(c3c(OC)cccc31)C(=O)c1ccccc1-2", "studyTarget": "HOP-92 NSCLC", "cat": "bin B"}
{"compound": "CC(O)Cc1c[nH]c(=O)[nH]c1=O (centres undefined)", "studyTarget": "HOP-92 NSCLC", "cat": "bin C"}
{"compound": "CCOC(=O)CC[C@H](NC(=O)c1ccc(N(C)Cc2cnc3nc(N)nc(N)c3n2)c2ccccc12)C(=O)OCC", "studyTarget": "HOP-92 NSCLC", "cat": "bin B"}
{"compound": "CN(C)c1ccc([C@@H](C(=O)Nc2cccc([N+](=O)[O-])c2)N(C(=O)c2cc3ccccc3[nH]2)c2cccc([N+](=O)[O-])c2)cc1", "studyTarget": "HOP-92 NSCLC", "cat": "bin B"}
{"compound": "COc1cc(/C=C/c2cn[nH]c2-c2ccc(C)cc2)cc(OC)c1OC", "studyTarget": "HOP-92 NSCLC", "cat": "bin B"}
{"compound": "COc1ccc2c(c1)CC[C@@H]1[C@@H]2CC[C@]2(C)c3c(cc(C#N)c4c3sc3ccccc34)C[C@@H]12", "studyTarget": "HOP-92 NSCLC", "cat": "bin B"}
{"compound": "CCN(CC)C(=O)CC1=C(C)/C(=C/c2[nH]c(-c3ccc[nH]3)cc2OC)N=C1C", "studyTarget": "HOP-92 NSCLC", "cat": "bin A"}
{"compound": "C=C[C@@]1(C)CC(=O)[C@@H](C(C)(C)c2cn(C)c3ccc(Br)cc23)C[C@@H]1O[Si](C)(C)C(C)(C)C", "studyTarget": "HOP-92 NSCLC", "cat": "bin C"}
{"compound": "COC(=O)[C@@]12CC=C(C)[C@]3(C[C@H](c4ccoc4)OC3=O)[C@H]1C=C[C@@H](O)[C@@]2(O)C(=O)OC", "studyTarget": "HOP-92 NSCLC", "cat": "bin C"}
{"compound": "COc1ccc(-c2nc3c(c(-c4ccc(Cl)cc4)nn3-c3ccccc3)c(-c3ccccc3)c2C#N)cc1", "studyTarget": "HOP-92 NSCLC", "cat": "bin C"}
{"compound": "COc1ccc2cc(-c3nc4ccc(C)cn4c3NCc3ccco3)c(=O)[nH]c2c1", "studyTarget": "HOP-92 NSCLC", "cat": "bin A"}
{"compound": "CC(C)(C)OC(=O)CN1CCc2c(sc3ncnc(N4CCN(c5ccc(F)cc5)CC4)c23)C1", "studyTarget": "HOP-92 NSCLC", "cat": "bin C"}
{"compound": "c1cc(OCCN2CCCCCC2)ccc1CNc1ccc2nc(CCC3CCCCC3)[nH]c2c1", "studyTarget": "HOP-92 NSCLC", "cat": "bin A"}
{"compound": "Cc1ccc(-c2csc(NC(=O)CSc3nc(N)cc(N)n3)n2)cc1", "studyTarget": "HOP-92 NSCLC", "cat": "bin C"}

---

- System: SR leukemia
- testSummary: NCI-60 one-dose screen, 48 h (100 = growth as untreated, 0 = no growth, -100 = all killed)
- conditions: 10 µM unless noted
- Experimental: Growth inhibition of the SR human tumor cell line is measured as a screen for anti-cancer activity. Cells are grown in 96 well plates and exposed to the test compound for 48 hours. Compounds are tested at a single concentration, which is 10^-5 M for most compounds. The reported endpoint is percent growth (GI% or GIPRCNT), where numbers from 0 - 100% represent growth inhibition, and numbers from -100% - 0 represent cell death. For example, a value of 40 represents 60% growth inhibition. […]
About 83,000 compounds went through this panel and 20% of them were active in at least one assay; those are over-represented in the sample as a whole.
The threshold is inclusive: growth of exactly 30% counts as yes; values below receive no.

{"molecule": "CCCCCc1ccc(S(=O)(=O)Nc2ccc3nc(N)oc3c2)cc1", "studyTarget": "SR leukemia", "cat": "yes"}
{"molecule": "Cn1cc(-c2nc3c(F)cc4[nH]ncc4c3c3c2CCCC3)c(C(F)(F)F)n1", "studyTarget": "SR leukemia", "cat": "no"}
{"molecule": "COc1cc2c(cc1OCCCN1CCN(C(=S)SCCC(C#N)(c3ccccc3)c3ccccc3)CC1)N=C[C@@H]1CCCN1C2=O", "studyTarget": "SR leukemia", "cat": "no"}
{"molecule": "O=[N+]([O-])c1c(O)c(Cl)cc(Cl)c1Cl", "studyTarget": "SR leukemia", "cat": "yes"}
{"molecule": "c1ccc(-c2c(-c3ccccc3)[n+](Cc3ccc4ccccc4c3)cn2Cc2ccc3ccccc3c2)cc1", "studyTarget": "SR leukemia", "cat": "no"}
{"molecule": "COC1C(O)CC(OC2CC(OC3CC(O[C@@H]4C(=O)c5c(cc6cc(OC7CC(OC8CC(O)C(O)C(C)O8)C(O)C(C)O7)c(C)c(O)c6c5O)CC4[C@H](OC)C(=O)O)OC(C)C3O)OC(C)C2O)OC1C (stereo partly drawn)", "studyTarget": "SR leukemia", "cat": "no"}
{"molecule": "NS(=O)(=O)c1ccc(C(=O)N=Nc2c(O)[nH]c3ccc(Cl)cc23)cc1", "studyTarget": "SR leukemia", "cat": "yes"}
